- TARGET ENTITY: SpMyo1
- EXPERIMENTAL PROTOCOL: SPOT peptide array binding signal intensity (averaged, normalized) (arbitrary units (background-subtracted, floor 0; scale differs between SH3 domains)); higher = stronger binding of the SH3 domain to the peptide
Would you please tag the item class 1 when its SPOT peptide array binding signal intensity is 3 or above, and class 0 when it is below?

GAGERPRLVPRPINV; class 1

Incoming: Kindly determine if SPOT peptide array binding signal intensity recorded for `VKPRQLFPIPLNKVD` is above or exactly 3.
Outgoing: class 1

Incoming: Kindly determine if SPOT peptide array binding signal intensity recorded for `SKAKRPKFLLDLQIK` is above or exactly 3.
Outgoing: class 0

Incoming: Kindly determine if SPOT peptide array binding signal intensity recorded for `RFKRHRLEFPFNESE` is above or exactly 3.
Outgoing: class 0

Incoming: Kindly determine if SPOT peptide array binding signal intensity recorded for `STKKPRPPVKSKPKH` is above or exactly 3.
Outgoing: class 0

Incoming: Kindly determine if SPOT peptide array binding signal intensity recorded for `NTMKKRPAPPSLPSL` is above or exactly 3.
Outgoing: class 1

Incoming: Kindly determine if SPOT peptide array binding signal intensity recorded for `TKRKRPARLIFYDSK` is above or exactly 3.
Outgoing: class 1

These measurements were taken from the supplement of paper PMC4466140.
